Measured values drawn from the Biogen ADME set (Fang et al. 2023) for this set.

Listed here are molecules together with their documented intrinsic clearance, human liver microsomes.
Give a bare numeral; the unit mL/min/kg is implied.

[
  {
    "molecule": "COc1ccccc1Oc1c(NS(=O)(=O)c2ccc(C(C)(C)C)cc2)nc(-c2ncccn2)nc1OCCO",
    "units of measure": "mL/min/kg",
    "recorded number": 16
  }
]

Continue with the next molecule.
# get_value(readout='intrinsic clearance, human liver microsomes', item= CC1CCC(N(Cc2nnc(C3CCC3)o2)C2CCC(O)CC2)CC1 (stereo unspecified) )
230

###

# if measured MDR1-MDCK efflux ratio < 1: Satisfied  # else: Not satisfied

Illustrative cases are given below, each with its answer.
[
  {
    "compound smiles": "C[C@H]1NC(=O)N(CCc2nc(C(F)(F)F)cs2)C1=O",
    "cat": "Not satisfied"
  },
  {
    "compound smiles": "CCCn1cc(CN2CCC(c3nc(N(C)C)no3)CC2)cn1",
    "cat": "Not satisfied"
  },
  {
    "compound smiles": "O=C(CC1CCNCC1)NCCc1ccccc1F",
    "cat": "Not satisfied"
  },
  {
    "compound smiles": "c1ccc(-c2noc(Cn3ccnc3)n2)nc1",
    "cat": "Not satisfied"
  }
]

Consider C#CCNC(=O)CN1CCCN(C(=O)c2cccc(C)n2)CC1 . Does its MDR1-MDCK efflux ratio lie strictly below 1?
Not satisfied

Consider Cc1c[nH]c2nccc(Oc3c(F)cc(Nc4cc(Cl)nc(N)n4)cc3F)c12 . Does its MDR1-MDCK efflux ratio lie strictly below 1?
Not satisfied

Consider Cn1cc(CN2CCc3nc4ccccc4c(=O)n3CC2)cn1 . Does its MDR1-MDCK efflux ratio lie strictly below 1?
Not satisfied
